Data credit: patent US20100215651A1

Biological target: T1, human CD19 (human, UniProt P15391 20-556)
T1 construct: CD19 as expressed on Raji, NALM-6 and SU-DHL-6 cells; also called CD19 antigen; B-cell surface antigen B4
T1 sequence: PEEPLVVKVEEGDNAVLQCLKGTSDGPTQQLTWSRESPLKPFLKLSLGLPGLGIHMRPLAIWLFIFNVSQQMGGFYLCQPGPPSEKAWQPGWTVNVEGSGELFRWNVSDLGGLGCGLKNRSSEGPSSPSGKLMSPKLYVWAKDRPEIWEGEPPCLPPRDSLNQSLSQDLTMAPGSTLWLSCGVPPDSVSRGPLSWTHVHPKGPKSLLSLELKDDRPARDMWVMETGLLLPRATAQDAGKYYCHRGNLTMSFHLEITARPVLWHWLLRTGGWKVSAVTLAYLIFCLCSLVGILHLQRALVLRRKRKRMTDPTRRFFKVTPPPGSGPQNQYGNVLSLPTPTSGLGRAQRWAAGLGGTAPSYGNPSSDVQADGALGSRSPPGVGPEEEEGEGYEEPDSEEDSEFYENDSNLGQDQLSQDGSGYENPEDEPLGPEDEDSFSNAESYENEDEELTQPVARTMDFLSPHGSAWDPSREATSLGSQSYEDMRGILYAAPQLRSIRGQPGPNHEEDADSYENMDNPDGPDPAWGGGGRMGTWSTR
Test: flow cytometry, Raji cells, MPF vs chimeric FMC63
MEASURED ATTRIBUTE: relative MPF (% of chimeric FMC63) (%)

| BINDER | MEASURED ATTRIBUTE | UOM | MEASURED RESULT |
| --- | --- | --- | --- |
| VH16-F67L/VL43-Y87F (antibody, human IgG1, name in Kabat numbering, V domains shown, substitutions in Kabat numbering) VH: QVQLVQSGGGVVQPGRSLRLSCAASGVSLPDYGVSWVRQAPGKGLEWVAVIWGSETTYYNSALKSRLTISRDNSKNTLYLQMNSLRAEDTAVYYCARHYYYGGSYAMDYWGQGTLVTVSS VL: DIVMTQTPSSLSASVGDRVTITCRASQDISKYLNWYQQKPGKAPKLLIYHTSRLHSGVPSRFSGSGSGTDFTLTISSLQPEDFATYFCQQGNTLPYTFGPGTKVDIKR | relative MPF (% of chimeric FMC63) | % | 4.35 |
| VH16/VL43-Y87F (antibody, human IgG1, V domains shown, substitutions in Kabat numbering) VH: QVQLVQSGGGVVQPGRSLRLSCAASGVSLPDYGVSWVRQAPGKGLEWVAVIWGSETTYYNSALKSRFTISRDNSKNTLYLQMNSLRAEDTAVYYCARHYYYGGSYAMDYWGQGTLVTVSS VL: DIVMTQTPSSLSASVGDRVTITCRASQDISKYLNWYQQKPGKAPKLLIYHTSRLHSGVPSRFSGSGSGTDFTLTISSLQPEDFATYFCQQGNTLPYTFGPGTKVDIKR | relative MPF (% of chimeric FMC63) | % | 10 |
| VH16/VL43-P44V (antibody, human IgG1, V domains shown, substitutions in Kabat numbering) VH: QVQLVQSGGGVVQPGRSLRLSCAASGVSLPDYGVSWVRQAPGKGLEWVAVIWGSETTYYNSALKSRFTISRDNSKNTLYLQMNSLRAEDTAVYYCARHYYYGGSYAMDYWGQGTLVTVSS VL: DIVMTQTPSSLSASVGDRVTITCRASQDISKYLNWYQQKPGKAVKLLIYHTSRLHSGVPSRFSGSGSGTDFTLTISSLQPEDFATYYCQQGNTLPYTFGPGTKVDIKR | relative MPF (% of chimeric FMC63) | % | 9.72 |
